Measured pIC50 of individual entries
- Target or system: mutant G2019S LRRK2 (Homo sapiens, UniProt Q5S007, G2019S)
- Sequence (Q5S007 970-2527 G2019S limits assumed): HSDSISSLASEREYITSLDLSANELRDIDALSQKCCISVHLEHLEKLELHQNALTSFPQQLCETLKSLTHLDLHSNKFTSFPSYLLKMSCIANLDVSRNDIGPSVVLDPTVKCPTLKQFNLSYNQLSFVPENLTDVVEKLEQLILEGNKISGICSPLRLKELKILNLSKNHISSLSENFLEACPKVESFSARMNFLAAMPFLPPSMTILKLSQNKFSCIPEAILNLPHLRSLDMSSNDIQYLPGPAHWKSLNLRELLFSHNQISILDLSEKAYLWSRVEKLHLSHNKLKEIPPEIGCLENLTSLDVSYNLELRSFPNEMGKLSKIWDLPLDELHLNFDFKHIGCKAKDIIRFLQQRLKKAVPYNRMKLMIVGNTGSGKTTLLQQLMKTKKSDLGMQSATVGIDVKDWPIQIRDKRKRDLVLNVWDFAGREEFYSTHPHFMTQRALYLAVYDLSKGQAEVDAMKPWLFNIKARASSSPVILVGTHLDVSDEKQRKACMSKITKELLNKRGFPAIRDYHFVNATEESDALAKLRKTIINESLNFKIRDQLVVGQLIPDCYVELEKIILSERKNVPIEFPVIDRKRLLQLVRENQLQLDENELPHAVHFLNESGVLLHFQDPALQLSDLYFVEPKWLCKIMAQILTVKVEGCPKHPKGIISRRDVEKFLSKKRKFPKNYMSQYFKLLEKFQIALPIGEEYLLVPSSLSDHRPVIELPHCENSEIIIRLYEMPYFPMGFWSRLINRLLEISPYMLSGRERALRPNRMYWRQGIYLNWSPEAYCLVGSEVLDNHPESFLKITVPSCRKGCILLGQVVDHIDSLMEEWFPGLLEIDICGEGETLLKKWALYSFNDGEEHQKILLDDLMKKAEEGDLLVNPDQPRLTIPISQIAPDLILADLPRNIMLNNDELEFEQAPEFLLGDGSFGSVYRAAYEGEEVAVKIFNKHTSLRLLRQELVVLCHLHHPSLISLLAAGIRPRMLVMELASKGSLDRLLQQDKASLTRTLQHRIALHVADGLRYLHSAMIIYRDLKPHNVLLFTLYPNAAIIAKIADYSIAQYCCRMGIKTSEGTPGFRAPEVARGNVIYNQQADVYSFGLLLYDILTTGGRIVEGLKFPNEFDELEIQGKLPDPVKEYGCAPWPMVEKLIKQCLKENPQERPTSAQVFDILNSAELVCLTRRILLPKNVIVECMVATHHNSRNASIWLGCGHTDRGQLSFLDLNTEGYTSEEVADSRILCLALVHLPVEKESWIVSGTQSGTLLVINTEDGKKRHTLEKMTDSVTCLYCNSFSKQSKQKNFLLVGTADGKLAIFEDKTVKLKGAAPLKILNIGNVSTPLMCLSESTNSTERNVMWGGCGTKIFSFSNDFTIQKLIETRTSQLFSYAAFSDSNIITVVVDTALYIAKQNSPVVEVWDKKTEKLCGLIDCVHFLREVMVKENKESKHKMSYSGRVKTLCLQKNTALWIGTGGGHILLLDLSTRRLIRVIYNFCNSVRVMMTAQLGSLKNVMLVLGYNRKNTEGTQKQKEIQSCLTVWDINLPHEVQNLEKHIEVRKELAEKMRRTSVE
- Assay info: LRRK2 Assay, Format 2 (Lantha Screen), G2019S mutant
- Format: biochemical
- Design: purchased Invitrogen PV4881
- Condition label: geometric mean of 2-4 determinations unless otherwise indicated (a: >=5; b: single determination); read-out: LRRK2, Format 2 G2019S IC50
pIC50: −log10 of the molar value. Structures can show the parent of a compound that is named as a salt.
Measured endpoint: pIC50

COCc1cn(Cc2nc3cnc4ccc(C#N)cc4c3n2[C@@H]2CC[C@H](F)C2)nn1 (single isomer, unassigned; ent-1) = 7.97
CCc1nn2cc(Cc3nc4cnc5ccc(C#N)cc5c4n3[C@@H]3CCO[C@H](C)C3)nc2s1 [Example 156, formate salt] = 8.37
Cc1cc(Cc2nc3cnc4ccc(C#N)cc4c3n2[C@@H]2CCN(C)C2)no1 [Example 213, formate salt] = 8.15
COc1ccc(Cc2nc3cnc4ccc(C#N)cc4c3n2[C@@H]2CCO[C@H](C)C2)nc1 = 8.33
Cc1cc(Cc2nc3cnc4ccc(C#N)cc4c3n2[C@@H]2CCO[C@H](C)C2)on1 = 8.22
Cc1cc(Cc2nc3cnc4ccc(C#N)cc4c3n2C2CCC(F)(F)C2)no1 (stereo not shown) [Example 246, formate salt] = 7.06
C[C@@H]1C[C@H](n2c(Cc3cccnn3)nc3cnc4ccc(Cl)cc4c32)CCO1 = 8.25

----------
We begin with a simple list: items and their reported IC50.
- Target or system: GST-tagged truncated LRRK2 (Homo sapiens)
- Construct: GST-tagged truncated LRRK2 from Invitrogen (Cat # PV4874); GST; purchased Invitrogen PV4874
- Sequence (Q5S007 970-2527 limits assumed): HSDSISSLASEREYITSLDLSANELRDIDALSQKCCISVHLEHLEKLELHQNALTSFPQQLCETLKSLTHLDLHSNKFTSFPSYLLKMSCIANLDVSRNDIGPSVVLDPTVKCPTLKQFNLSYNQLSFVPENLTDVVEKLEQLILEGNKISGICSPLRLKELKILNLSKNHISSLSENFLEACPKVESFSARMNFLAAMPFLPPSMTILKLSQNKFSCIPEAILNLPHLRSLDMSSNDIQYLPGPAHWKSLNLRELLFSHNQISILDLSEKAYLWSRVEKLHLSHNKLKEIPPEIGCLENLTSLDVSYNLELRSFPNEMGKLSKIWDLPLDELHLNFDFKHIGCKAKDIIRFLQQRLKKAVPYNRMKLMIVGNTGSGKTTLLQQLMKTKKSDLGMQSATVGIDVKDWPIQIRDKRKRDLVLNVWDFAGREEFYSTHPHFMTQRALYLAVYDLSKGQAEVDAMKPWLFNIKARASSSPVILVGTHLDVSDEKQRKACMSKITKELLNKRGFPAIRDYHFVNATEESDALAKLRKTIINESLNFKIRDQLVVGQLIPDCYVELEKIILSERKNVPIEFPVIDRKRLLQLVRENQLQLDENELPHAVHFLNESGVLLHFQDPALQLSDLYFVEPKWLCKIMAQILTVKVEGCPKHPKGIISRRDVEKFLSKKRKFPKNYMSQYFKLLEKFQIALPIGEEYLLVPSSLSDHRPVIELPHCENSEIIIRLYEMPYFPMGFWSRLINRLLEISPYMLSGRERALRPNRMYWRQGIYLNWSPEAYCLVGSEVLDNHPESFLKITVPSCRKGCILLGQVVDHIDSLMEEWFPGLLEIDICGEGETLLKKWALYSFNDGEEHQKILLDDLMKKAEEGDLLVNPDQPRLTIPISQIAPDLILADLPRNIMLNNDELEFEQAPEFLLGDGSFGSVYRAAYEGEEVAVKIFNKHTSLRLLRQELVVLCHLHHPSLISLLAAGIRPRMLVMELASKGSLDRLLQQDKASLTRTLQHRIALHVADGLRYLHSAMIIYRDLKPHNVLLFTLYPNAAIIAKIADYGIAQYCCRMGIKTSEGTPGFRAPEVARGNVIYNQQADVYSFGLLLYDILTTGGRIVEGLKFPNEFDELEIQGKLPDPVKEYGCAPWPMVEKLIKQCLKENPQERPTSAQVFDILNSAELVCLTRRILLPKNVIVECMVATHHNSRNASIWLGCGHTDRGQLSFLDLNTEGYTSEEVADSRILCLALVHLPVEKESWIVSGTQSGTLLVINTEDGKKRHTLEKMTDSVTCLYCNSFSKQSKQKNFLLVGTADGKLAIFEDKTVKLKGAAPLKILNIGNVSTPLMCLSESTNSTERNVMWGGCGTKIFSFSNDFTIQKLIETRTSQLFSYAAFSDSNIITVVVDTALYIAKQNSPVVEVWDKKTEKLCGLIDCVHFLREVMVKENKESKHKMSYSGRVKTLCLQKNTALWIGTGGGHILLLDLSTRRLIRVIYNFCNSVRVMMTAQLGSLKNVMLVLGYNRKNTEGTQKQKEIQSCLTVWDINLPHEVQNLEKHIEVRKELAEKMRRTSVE
- Assay info: LRRK2 Assay, Format 1 (Lantha Screen), WT
- Type: biochemical
- Condition label: Format 1, wild-type LRRK2; geometric mean of 2-4 determinations unless footnoted (a: ≥5 determinations; b: single determination; c: determined on trifluoroacetate salt)
Counter-ions that a name gives are not always drawn.
Measured endpoint: IC50 (nM)

Cc1cc(Cc2nc3cnc4ccc(C#N)cc4c3n2[C@@H]2CCO[C@H](C)C2)no1 = 4.9
c1ccc2c(c1)ncc1nc(Cn3cncn3)n(C3CCOCC3)c12 = 120
Cc1nc(Cc2nc3cnc4ccc(Cl)cc4c3n2[C@H]2CCO[C@@H](C)C2)no1 = 109
CC1(C)CC(n2c(Cc3cn4ncsc4n3)nc3cnc4ccccc4c32)CCO1 (centres unmarked) [Example 73, trifluoroacetate salt] = 76.3
Clc1cn2cc(Cc3nc4cnc5ccccc5c4n3C3CCOCC3)nc2s1 [Example 71, trifluoroacetate salt] = 106
C[C@@H]1C[C@H](n2c(Cc3ccon3)nc3cnc4ccc(Br)cc4c32)CCO1 (single isomer, unassigned) = 4.5
F[C@@H]1CC[C@H](n2c(Cc3ccon3)nc3cnc4ccc(Br)cc4c32)C1 [Example 25, formate salt] = 56.3
COc1ccc2ncc3nc(Cc4noc(C)n4)n([C@@H]4CCO[C@H](C)C4)c3c2c1 = 111
C[C@@H]1C[C@H](n2c(CC#N)nc3cnc4ccc(Cl)cc4c32)CCO1 = 6.3
Fc1ccc2ncc3nc(Cc4cscn4)n(C4CCOCC4)c3c2c1 [Example 77, trifluoroacetate salt] = 74.6
CC1(C)CC(n2c(Cc3ccon3)nc3cnc4ccc(F)cc4c32)CCO1 (centres unmarked) [Example 84, trifluoroacetate salt] = 31.4
COc1ccc2ncc3nc(Cc4cn5ncsc5n4)n([C@@H]4CCO[C@H](C)C4)c3c2c1 = 14.8
CC(C)(O)c1cn(Cc2nc3cnc4ccccc4c3n2C2CCOCC2)nn1 = 141
CC[C@H]1C[C@@H](n2c(Cc3ccon3)nc3cnc4ccc(Br)cc4c32)CCO1 (racemic) = 32.5
Cc1nc(Cc2nc3cnc4ccc(Cl)cc4c3n2[C@@H]2CCO[C@H](C)C2)no1 = 4.6
Cc1nc2cnc3ccc(Br)cc3c2n1[C@H]1CC[C@@H](F)C1 = 172
Fc1ccc2ncc3nc(Cn4cc5ccccc5n4)n(C4CCOCC4)c3c2c1 [Example 76, trifluoroacetate salt] = 67.5
COc1ccc(Cc2nc3cnc4ccc(F)cc4c3n2C2CCOC(C)(C)C2)nc1 (centres unmarked) = 77.7
Cc1cn(Cc2nc3cnc4ccc(Cl)cc4c3n2[C@@H]2CCO[C@H](C)C2)nn1 = 3.4
F[C@H]1CC[C@@H](n2c(Cc3ccon3)nc3cnc4ccccc4c32)C1 = 158
Cc1cn(Cc2nc3cnc4ccccc4c3n2C2CCOCC2)nn1 = 98.6
Clc1ccc2ncc3nc(Cc4ccon4)n(C4CCOCC4)c3c2c1 [Example 63, formate salt] = 16.1
C[C@H]1C[C@@H](n2c(Cc3ccon3)nc3cnc4ccc(C#N)cc4c32)CCO1 (racemic) = 7.5
C[C@@H]1C[C@H](n2c(Cc3cscn3)nc3cnc4ccc(Br)cc4c32)C[C@H](C)O1 = 35.1
Cc1nc2cnc3ccccc3c2n1[C@H]1CCO[C@@H](C)C1 (racemic) = 187
Fc1ccc2ncc3nc(Cc4cn5ncsc5n4)n(C4CCOCC4)c3c2c1 [Example 82, trifluoroacetate salt] = 17.6
C[C@H]1C[C@@H](n2c(Cc3cscn3)nc3cnc4ccc(Br)cc4c32)CCO1 (racemic) = 10
C[C@@H]1C[C@H](n2c(Cn3cncn3)nc3cnc4ccc(Cl)cc4c32)CCO1 (single isomer, unassigned) = 2.8
COc1ccc2ncc3nc(Cc4cc(C)on4)n([C@H]4CCO[C@@H](C)C4)c3c2c1 (single isomer, unassigned) = 1260
Cc1cc(Cc2nc3cnc4ccc(Cl)cc4c3n2[C@@H]2CCO[C@H](C)C2)no1 = 8.3
Cc1nc2cnc3ccc(C#N)cc3c2n1C1CCOCC1 = 160
C[C@@H]1C[C@H](n2c(Cc3cscn3)nc3cnc4ccc(Cl)cc4c32)CCO1 [Example 10] = 5

----------
- Target or system: GST-tagged truncated LRRK2 (Homo sapiens)
- Construct: GST-tagged truncated LRRK2 from Invitrogen (Cat # PV4874); GST; purchased Invitrogen PV4874
- Assay info: LRRK2 Assay, Format 2 (Lantha Screen), WT
- Assay type: biochemical
- Condition label: geometric mean of 2-4 determinations unless otherwise indicated (a: >=5; b: single determination)
- Method: LRRK2 kinase activity was measured using Lantha Screen technology from Invitrogen. […] Upon completion, the assay was stopped and detected with a terbium labeled anti-phospho-ERM antibody (Invitrogen, cat # PR8975A). […] After an incubation of 1 hour at room temperature, the plate was read on an Envision with an excitation wavelength of 340 nm and a reading emission at both 520 nm and 495 nm. […] Inhibition of mutant G2019S LRRK2 (Invitrogen cat # PV4881) was measured in the exact same method. […]
Counter-ions that a name gives are not always drawn.
Measured endpoint: IC50 (nM)

C[C@@H]1C[C@H](n2c(Cc3cnco3)nc3cnc4ccc(C#N)cc4c32)CCO1 [Example 229, formate salt] = 9.71
C[C@@H]1C[C@H](n2c(Cc3cc(=O)n4ccccc4n3)nc3cnc4ccc(Cl)cc4c32)CCO1 [Example 164, formate salt] = 5.88
Cc1cc(Cc2nc3cnc4ccc(C#N)cc4c3n2C2CCN(C)C2)no1 (stereo not shown) [Example 217, formate salt] = 5.43
Cc1nc(Cc2nc3cnc4ccc(Cl)cc4c3n2[C@@H]2CCO[C@H](CC#N)C2)no1 (single isomer, unassigned; ent-1) [Example 135] = 16

----------
pIC50 values for the compounds below.
- Target or system: mutant G2019S LRRK2 (Homo sapiens, UniProt Q5S007, G2019S)
- Assay info: LRRK2 Assay, Format 2 (Lantha Screen), G2019S mutant
- Format: biochemical
- Parameters: purchased Invitrogen PV4881
- Condition label: geometric mean of 2-4 determinations unless otherwise indicated (a: >=5; b: single determination); read-out: LRRK2, Format 2 G2019S IC50
pIC50: −log10 of the molar value. Where a name gives a salt, the structure may show the parent alone.
Measured endpoint: pIC50

C[C@@H]1C[C@H](n2c(Cc3cc(CF)on3)nc3cnc4ccc(C#N)cc4c32)CCO1 [Example 189, trifluoroacetate salt] = 8.45
C[C@@H]1C[C@H](n2c(Cc3ccc4nnnn4n3)nc3cnc4ccc(Cl)cc4c32)CCO1 = 8.13
Cc1cnn(Cc2nc3cnc4ccc(Cl)cc4c3n2[C@@H]2CCO[C@H](C)C2)n1 = 7.97
C[C@@H]1C[C@H](n2c(Cn3cnnn3)nc3cnc4ccc(Cl)cc4c32)CCO1 [Example 129, formate salt] = 8.38

----------
The following compounds are shown together with reported pIC50 values.
- Target or system: mutant G2019S LRRK2 (Homo sapiens, UniProt Q5S007, G2019S)
- Assay info: LRRK2 Assay, Format 1 (Lantha Screen), G2019S mutant
pIC50: −log10 of the molar value. Counter-ions that a name gives are not always drawn.
Measured endpoint: pIC50

COc1ccc2ncc3nc(Cc4cn5ncsc5n4)n([C@H]4CCO[C@@H](C)C4)c3c2c1 [enantiomer of Example 90] = 6.61
Cc1nc2cnc3ccccc3c2n1[C@H]1CCO[C@@H](CC#N)C1 (racemic) = 7.91
Cc1nc2cnc3ccc(C#N)cc3c2n1[C@H]1CC[C@@H](F)C1 = 6.76
c1ccc2c(c1)ncc1nc(Cc3ccon3)n(C3CCCCC3)c12 = 7.24
CC(C)c1cc(Cc2nc3cnc4ccc(Br)cc4c3n2[C@@H]2CCO[C@H](C)C2)no1 = 7.80
Fc1ccc2ncc3nc(Cc4ccon4)n(C4CCOCC4)c3c2c1 [Example 75, trifluoroacetate salt] = 6.81
CC(C)(O)c1cn(Cc2nc3cnc4ccccc4c3n2C2CCOCC2)nn1 = 6.92
COc1ccc(Cc2nc3cnc4ccccc4c3n2C2CCOCC2)nc1 = 6.84
